Where do the numbers come from? From ChEMBL document CHEMBL5241136.

experiment: Therapeutic index, ratio of LD50 for toxicity in mouse to HD50 for anesthetic activity in mouse assessed as concentration required to induce hypnotic effect
conditionParameters: read-out: TI
assayEndpoint: selectivity ratio
One number for each entry.

INSERT INTO results (compoundstructurestring, assayendpoint, valuereported) VALUES
  ('CCOC(=O)Cc1ccc(OCC(=O)N2CCOCC2)c(OCC)c1', 'selectivity ratio', 6.4),
  ('COc1cc(CC(=O)OC(C)C)ccc1OCC(=O)N1CCN(C(=O)OC(C)(C)C)CC1', 'selectivity ratio', 6.9),
  ('CCCOC(=O)Cc1ccc(OCC(=O)N2CCOCC2)c(OCC)c1', 'selectivity ratio', 6.2);

For every item below, please supply its selectivity ratio.
1. CC(C)c1cccc(C(C)C)c1O
2. CCOC(=O)Cc1ccc(OCC(=O)N2CCOCC2)c(OC)c1

1. 5.1
2. 6.2

For every item below, please supply its selectivity ratio.
1. CCCOC(=O)Cc1ccc(OCC(=O)N2CCOCC2)c(OC)c1
2. CCCOC(=O)Cc1ccc(OCC(=O)N2CCN(C(=O)OC(C)(C)C)CC2)c(OC)c1

1. 6.4
2. 7.8

* * *

experiment: n-Octanol/water partition coefficient, logP of the compound
Type: physicochemical
conditionParameters: n-octanol/water; read-out: logP
Could you please report measured logP for the items listed next?
Numbers only.

INSERT INTO assay_data (compoundstructurestring, assayendpoint, valuereported) VALUES
  ('CCOc1cc(CC(=O)OC(C)C)ccc1OCC(=O)N1CCOCC1', 'logP', 1.2),
  ('COc1cc(CC(=O)OC(C)C)ccc1OCC(=O)N1CCOCC1', 'logP', 1.3),
  ('CCOc1cc(CC(=O)OCC(F)(F)F)ccc1OCC(=O)N(CC)CC', 'logP', 2.6),
  ('CCOC(=O)Cc1ccc(OCC(=O)N2CCNCC2)c(OCC)c1', 'logP', 2),
  ('COc1cc(CC(=O)OC(C)C)ccc1OCC(=O)N1CCNCC1', 'logP', 1.8);

For every item below, please supply its logP.
1. CCOC(=O)Cc1ccc(OCC(=O)N2CCN(C(=O)OC(C)(C)C)CC2)c(OC)c1
2. CCOC(=O)Cc1ccc(OCC(=O)N2CCOCC2)c(OCC)c1
3. CCCOC(=O)Cc1ccc(OCC(=O)N2CCOCC2)c(OC)c1
4. CCCOC(=O)Cc1ccc(OCC(=O)N2CCNCC2)c(OC)c1

1. 1.5
2. 1.1
3. 1.5
4. 1.7

For every item below, please supply its logP.
1. COc1cc(CC(=O)OC(C)C)ccc1OCC(=O)N1CCN(C(=O)OC(C)(C)C)CC1
2. CCOC(=O)Cc1ccc(OCC(=O)N2CCCC2)c(OC)c1
3. CCCOC(=O)Cc1ccc(OCC(=O)N2CCN(C(=O)OC(C)(C)C)CC2)c(OC)c1

1: 1.8; 2: 1.3; 3: 1.9

For every item below, please supply its logP.
1. CCCOC(=O)Cc1ccc(OCC(=O)N2CCNCC2)c(OCC)c1
2. CCOC(=O)Cc1ccc(OCC(=O)N2CCCC2)c(OCC)c1

[1.7, 2.1]

For every item below, please supply its logP.
1. CCCOC(=O)Cc1ccc(OCC(=O)N2CCCC2)c(OC)c1
2. CCOc1cc(CC(=O)OC(C)C)ccc1OCC(=O)N1CCN(C(=O)OC(C)(C)C)CC1
3. CCOC(=O)Cc1ccc(OCC(=O)N2CCOCC2)c(OC)c1

[1.8, 2.1, 1.4]
